EXPERIMENTAL SYSTEM: NK3 (Homo sapiens, UniProt P29371)
Sequence (P29371 whole entry): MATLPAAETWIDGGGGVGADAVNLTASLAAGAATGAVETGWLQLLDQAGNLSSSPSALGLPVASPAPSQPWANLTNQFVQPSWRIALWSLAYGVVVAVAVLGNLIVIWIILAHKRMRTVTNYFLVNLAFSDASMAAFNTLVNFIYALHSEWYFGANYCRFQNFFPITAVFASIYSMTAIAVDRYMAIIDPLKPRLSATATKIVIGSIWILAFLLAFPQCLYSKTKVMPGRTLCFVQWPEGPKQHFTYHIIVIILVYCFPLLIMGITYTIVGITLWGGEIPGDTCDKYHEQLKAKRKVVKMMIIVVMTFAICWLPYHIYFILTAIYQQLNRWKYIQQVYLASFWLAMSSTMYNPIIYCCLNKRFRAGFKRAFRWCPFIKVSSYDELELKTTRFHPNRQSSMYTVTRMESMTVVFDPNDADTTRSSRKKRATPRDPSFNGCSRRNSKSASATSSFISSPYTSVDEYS
ASSAY REMARKS: Signal transduction (ST), intracellular Ca++ (FLIPR), NK3
Assay type: cell-based
EXPERIMENTAL CONTEXT: antagonist, read-out: NK3 pIC50 (converted)
MEASUREMENT LABEL: IC50 (µM)

>>> quantitative_readout("O=C(c1cc(C(F)(F)F)cc(C(F)(F)F)c1)N1CC[C@H](N2CCC3(CC2)CCN(S(=O)(=O)c2ccc(F)cc2)CC3)C[C@H]1Cc1ccccc1")
0.708
>>> quantitative_readout("CC1CCCCC1C(=O)N1CCC2(CC1)CCN([C@@H]1CCN(C(=O)c3cc(C(F)(F)F)cc(C(F)(F)F)c3)[C@H](Cc3ccccc3)C1)CC2 (some centres unmarked)")
5.37
>>> quantitative_readout("COc1cccc(CCC(=O)N2CCC3(CC2)CCN([C@H]2CCN(C(=O)c4cc(C(F)(F)F)cc(C(F)(F)F)c4)[C@H](Cc4ccccc4)C2)CC3)c1")
8.91
>>> quantitative_readout("O=C(C1CC1)N1CCC2(CC1)CCN(C(=O)[C@H]1CCN(C(=O)c3cc(C(F)(F)F)cc(C(F)(F)F)c3)[C@H](Cc3ccccc3)C1)CC2")
5.37
>>> quantitative_readout("Cc1noc(C)c1CN1CCC2(CCN([C@H]3CCN(C(=O)c4cc(C(F)(F)F)cc(C(F)(F)F)c4)[C@H](Cc4ccccc4)C3)CC2)CC1=O")
6.92
>>> quantitative_readout("O=C1CCC(C(=O)N2CCC3(CC2)CCN(C2CCN(C(=O)c4cc(C(F)(F)F)cc(C(F)(F)F)c4)C(Cc4ccccc4)C2)CC3)N1 (centres unmarked)")
1.29
>>> quantitative_readout("O=C(c1cc(C(F)(F)F)cc(C(F)(F)F)c1)N1CC[C@H](N2CCC3(CC2)CCN(S(=O)(=O)c2cccc(Cl)c2)CC3)C[C@H]1Cc1ccccc1")
3.16
>>> quantitative_readout("O=C(C1CCCC1)N1CCC2(CC1)CCN([C@@H]1CCN(C(=O)c3cc(C(F)(F)F)cc(C(F)(F)F)c3)[C@H](Cc3ccccc3)C1)CC2")
4.68

I = O=C(c1ccoc1)N1CCCC2(CCCN(C3CCN(C(=O)c4cc(C(F)(F)F)cc(C(F)(F)F)c4)C(Cc4ccccc4)C3)C2)C1 (centres unmarked)
II = CC1CC1C(=O)N1CCC2(CC1)CCN([C@H]1CCN(C(=O)c3cc(C(F)(F)F)cc(C(F)(F)F)c3)[C@H](Cc3ccccc3)C1)CC2 (some centres unmarked)
III = N#Cc1ccccc1S(=O)(=O)N1CCC2(CCN([C@H]3CCN(C(=O)c4cc(C(F)(F)F)cc(C(F)(F)F)c4)[C@H](Cc4ccccc4)C3)CC2)CC1
IV = O=C(c1cc(C(F)(F)F)cc(C(F)(F)F)c1)N1CC[C@H](N2CCC3(CC2)CCN(S(=O)(=O)c2ccc(Br)s2)CC3)C[C@H]1Cc1ccccc1
Please rank these compounds by IC50 in descending order. Use the labels to give the ranking in the order requested.
II, I, IV, III
(II: 7.94 µM, I: 3.8 µM, IV: 2.34 µM, III: 1.51 µM)

---

EXPERIMENTAL SYSTEM: NK1 (Homo sapiens, UniProt P25103)
Sequence (P25103 whole entry): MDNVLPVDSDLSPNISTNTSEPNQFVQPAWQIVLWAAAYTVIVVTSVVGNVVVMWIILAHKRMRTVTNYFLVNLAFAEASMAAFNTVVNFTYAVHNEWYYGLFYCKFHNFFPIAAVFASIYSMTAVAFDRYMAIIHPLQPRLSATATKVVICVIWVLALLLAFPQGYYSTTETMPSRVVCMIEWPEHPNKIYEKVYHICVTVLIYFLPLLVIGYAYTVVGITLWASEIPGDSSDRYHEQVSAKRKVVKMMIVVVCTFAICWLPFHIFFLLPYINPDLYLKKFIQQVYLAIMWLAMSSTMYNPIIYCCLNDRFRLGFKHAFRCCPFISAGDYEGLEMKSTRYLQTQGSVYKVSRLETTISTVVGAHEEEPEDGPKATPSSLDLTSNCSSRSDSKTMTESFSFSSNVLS
ASSAY REMARKS: Signal transduction (ST), intracellular Ca++ (FLIPR), functional NK1 antagonistic activity
Assay type: cell-based
EXPERIMENTAL CONTEXT: antagonist, read-out: NK1 pIC50 (converted)
MEASUREMENT LABEL: IC50 (nM)

A selection of reference data follows.
>>> quantitative_readout("CC1(C(=O)N2CCC3(CC2)CCN([C@H]2CCN(C(=O)c4cc(C(F)(F)F)cc(C(F)(F)F)c4)[C@H](Cc4ccccc4)C2)CC3)CC1")
105
>>> quantitative_readout("CC1CCCCC1C(=O)N1CCC2(CC1)CCN([C@@H]1CCN(C(=O)c3cc(C(F)(F)F)cc(C(F)(F)F)c3)[C@H](Cc3ccccc3)C1)CC2 (stereo partly drawn)")
85.1
>>> quantitative_readout("O=C(c1cccnc1)N1CCC2(CC1)CCN([C@H]1CCN(C(=O)c3cc(C(F)(F)F)cc(C(F)(F)F)c3)[C@H](Cc3ccccc3)C1)CC2")
77.6

P = O=C(c1cc(C(F)(F)F)cc(C(F)(F)F)c1)N1CC[C@H](N2CCC3(CC2)CCN(S(=O)(=O)c2ccc(Br)s2)CC3)C[C@H]1Cc1ccccc1
Q = O=C(CC1CCCCC1)N1CCC2(CC1)CCN([C@H]1CCN(C(=O)c3cc(C(F)(F)F)cc(C(F)(F)F)c3)[C@H](Cc3ccccc3)C1)CC2
R = Cc1noc(C)c1CN1CCC2(CCN([C@H]3CCN(C(=O)c4cc(C(F)(F)F)cc(C(F)(F)F)c4)[C@H](Cc4ccccc4)C3)CC2)CC1=O
Rank the 3 molecules: largest IC50 first, smallest last. Submit the labels in the order that the ranking request calls for.
P, Q, R

---

Where a name gives a salt, the structure may show the parent alone.
MEASUREMENT LABEL: melting point (°C)

A = CC(C)(C)OC(=O)N1CCC2(CC1)CCN(C1CCN(C(=O)c3cc(C(F)(F)F)cc(C(F)(F)F)c3)C(Cc3ccc(Cl)c(Cl)c3)C1)CC2 (stereo not shown)
B = O=C(c1cc(C(F)(F)F)cc(C(F)(F)F)c1)N1CCC(N2CCC3(CCN(Cc4ccccc4)CC3)CC2)CC1Cc1ccccc1 (stereo not shown) (as salt: hydrochloric acid salt)
Among A and B , which shows a numerically higher melting point result? Could you answer with the label of the item you picked?
B

---

EXPERIMENTAL SYSTEM: UniProtKB P21452
Sequence (P21452 whole entry): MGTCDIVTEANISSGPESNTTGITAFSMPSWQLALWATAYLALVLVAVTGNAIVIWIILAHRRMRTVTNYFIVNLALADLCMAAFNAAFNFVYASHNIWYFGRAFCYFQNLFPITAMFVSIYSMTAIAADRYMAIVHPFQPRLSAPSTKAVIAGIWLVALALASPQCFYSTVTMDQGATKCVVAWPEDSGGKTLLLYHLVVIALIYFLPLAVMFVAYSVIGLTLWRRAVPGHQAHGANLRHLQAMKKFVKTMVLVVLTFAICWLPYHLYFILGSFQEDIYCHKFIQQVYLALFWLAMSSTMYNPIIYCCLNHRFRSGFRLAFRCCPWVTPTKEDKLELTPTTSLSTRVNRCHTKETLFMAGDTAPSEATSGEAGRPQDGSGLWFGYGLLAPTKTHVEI
ASSAY REMARKS: Signal transduction (ST), intracellular Ca++ (FLIPR), NK2
Format: cell-based
EXPERIMENTAL CONTEXT: antagonist, read-out: NK2 pIC50 (converted)
MEASUREMENT LABEL: IC50 (µM)

>>> quantitative_readout("O=C(c1ccsc1)N1CCCC2(CCN([C@H]3CCN(C(=O)c4cc(C(F)(F)F)cc(C(F)(F)F)c4)[C@H](Cc4ccccc4)C3)CC2)C1 [Compound 175]")
4.47

a = O=C(c1ccncc1)N1CCC2(CC1)CCN([C@H]1CCN(C(=O)c3cc(C(F)(F)F)cc(C(F)(F)F)c3)[C@H](Cc3ccccc3)C1)CC2 [Compound 51]
b = O=C(C1CC1)N1CCC2(CC1)CCN(C1CCN(C(=O)c3cc(C(F)(F)F)cc(C(F)(F)F)c3)C(Cc3ccccc3)C1)CC2 (stereo not drawn) [Compound 3]
Task for the reader: decide whether a or b has the larger IC50. Refer to your chosen entry by its label in the reply.
a

---

EXPERIMENTAL SYSTEM: UniProt:P25103
ASSAY REMARKS: Signal transduction (ST), intracellular Ca++ (FLIPR), functional NK1 antagonistic activity
Format: cell-based
EXPERIMENTAL CONTEXT: antagonist, read-out: NK1 pIC50 (converted)
MEASUREMENT LABEL: IC50 (µM)

Worked examples follow.
>>> quantitative_readout("O=C(c1ccoc1)N1CCCC2(CCCN(C3CCN(C(=O)c4cc(C(F)(F)F)cc(C(F)(F)F)c4)C(Cc4ccccc4)C3)C2)C1 (stereo not shown) [Compound 212]")
0.631
>>> quantitative_readout("Cc1ccccc1S(=O)(=O)N1CCC2(CCN([C@H]3CCN(C(=O)c4cc(C(F)(F)F)cc(C(F)(F)F)c4)[C@H](Cc4ccccc4)C3)CC2)CC1 [Compound 103]")
0.0501
>>> quantitative_readout("O=C(NCC(=O)N1CCC2(CC1)CCN([C@H]1CCN(C(=O)c3cc(C(F)(F)F)cc(C(F)(F)F)c3)[C@H](Cc3ccccc3)C1)CC2)c1ccco1 [Compound 73]")
0.0331

I = Cc1cn(CC(=O)N2CCC3(CC2)CCN([C@H]2CCN(C(=O)c4cc(C(F)(F)F)cc(C(F)(F)F)c4)[C@H](Cc4ccccc4)C2)CC3)c(=O)[nH]c1=O [Compound 80]
II = O=C(C1CCCC1)N1CCC2(CC1)CCN([C@@H]1CCN(C(=O)c3cc(C(F)(F)F)cc(C(F)(F)F)c3)[C@H](Cc3ccccc3)C1)CC2 [Compound 18]
III = O=C1CC2(CCN1Cc1ccccc1F)CCN([C@H]1CCN(C(=O)c3cc(C(F)(F)F)cc(C(F)(F)F)c3)[C@H](Cc3ccccc3)C1)CC2 [Compound 202]
IV = O=C(c1cc(C(F)(F)F)cc(C(F)(F)F)c1)N1CC[C@H](N2CCC3(CC2)CCN(S(=O)(=O)c2c(Cl)sc(Cl)c2Br)CC3)C[C@H]1Cc1ccccc1 [Compound 99]
Reorder the items by IC50, least to greatest. Response field: labels, in requested order.
II, I, III, IV

---

EXPERIMENTAL SYSTEM: UniProt:P21452
ASSAY REMARKS: Signal transduction (ST), intracellular Ca++ (FLIPR), NK2
Type: cell-based
EXPERIMENTAL CONTEXT: antagonist, read-out: NK2 pIC50 (converted)
MEASUREMENT LABEL: IC50 (µM)

Answered cases to consult:
>>> quantitative_readout("O=C(c1cc(C(F)(F)F)cc(C(F)(F)F)c1)N1CCC(N2CCC3(CC2)CCN(C(CO)c2cccs2)CC3)CC1Cc1ccccc1 (stereo not shown) [Compound 6]")
7.76
>>> quantitative_readout("O=C(C=Cc1ccco1)N1CCC2(CC1)CCN([C@H]1CCN(C(=O)c3cc(C(F)(F)F)cc(C(F)(F)F)c3)[C@H](Cc3ccccc3)C1)CC2 [Compound 84]")
7.24
>>> quantitative_readout("O=C(c1cc(C(F)(F)F)cc(C(F)(F)F)c1)N1CC[C@H](N2CCC3(CC2)CCN(S(=O)(=O)Cc2ccccc2)CC3)C[C@H]1Cc1ccccc1 [Compound 126]")
3.39
>>> quantitative_readout("CC(C)(C)C(=O)N1CCC2(CC1)CCN([C@@H]1CCN(C(=O)c3cc(C(F)(F)F)cc(C(F)(F)F)c3)[C@H](Cc3ccccc3)C1)CC2 [Compound 8]")
2.82
>>> quantitative_readout("Cc1ccoc1C(=O)N1CCC2(CC1)CCN([C@H]1CCN(C(=O)c3cc(C(F)(F)F)cc(C(F)(F)F)c3)[C@H](Cc3ccccc3)C1)CC2 [Compound 25]")
3.98
>>> quantitative_readout("O=C(C1CC1)N1CCCC2(CCN([C@H]3CCN(C(=O)c4cc(C(F)(F)F)cc(C(F)(F)F)c4)[C@H](Cc4ccccc4)C3)CC2)C1 [Compound 172]")
6.92
>>> quantitative_readout("COc1cccc(CCC(=O)N2CCC3(CC2)CCN([C@H]2CCN(C(=O)c4cc(C(F)(F)F)cc(C(F)(F)F)c4)[C@H](Cc4ccccc4)C2)CC3)c1 [Compound 83]")
2.57
>>> quantitative_readout("O=C(c1ccc(=O)[nH]c1)N1CCC2(CC1)CCN([C@H]1CCN(C(=O)c3cc(C(F)(F)F)cc(C(F)(F)F)c3)[C@H](Cc3ccccc3)C1)CC2 [Compound 57]")
1.91

P = CC(C)(C)OC(=O)N1CCCC1C(=O)N1CCC2(CC1)CCN(C(=O)[C@H]1CCN(C(=O)c3cc(C(F)(F)F)cc(C(F)(F)F)c3)[C@H](Cc3ccccc3)C1)CC2 (stereo partly shown) [Compound 188]
Q = O=C(c1cc(C(F)(F)F)cc(C(F)(F)F)c1)N1CC[C@H](N2CCC3(CCN(C(=O)C4(c5ccccc5)CC4)CC3)CC2)C[C@H]1Cc1ccccc1 [Compound 89]
R = Cc1nc(S(=O)(=O)N2CCC3(CCN([C@H]4CCN(C(=O)c5cc(C(F)(F)F)cc(C(F)(F)F)c5)[C@H](Cc5ccccc5)C4)CC3)CC2)cn1C [Compound 100]
Rank descending by IC50. Respond with the label ranking, as requested.
P, Q, R
(P: 5.5 µM, Q: 2.51 µM, R: 1.26 µM)
